This collection of values is drawn from ChEMBL document CHEMBL1131784.

The entries below are paired with their reported IC50.
# TARGET_ENTITY: Acetolactate synthase, chloroplastic (Arabidopsis thaliana, UniProt P17597)
# Sequence (P17597 whole entry): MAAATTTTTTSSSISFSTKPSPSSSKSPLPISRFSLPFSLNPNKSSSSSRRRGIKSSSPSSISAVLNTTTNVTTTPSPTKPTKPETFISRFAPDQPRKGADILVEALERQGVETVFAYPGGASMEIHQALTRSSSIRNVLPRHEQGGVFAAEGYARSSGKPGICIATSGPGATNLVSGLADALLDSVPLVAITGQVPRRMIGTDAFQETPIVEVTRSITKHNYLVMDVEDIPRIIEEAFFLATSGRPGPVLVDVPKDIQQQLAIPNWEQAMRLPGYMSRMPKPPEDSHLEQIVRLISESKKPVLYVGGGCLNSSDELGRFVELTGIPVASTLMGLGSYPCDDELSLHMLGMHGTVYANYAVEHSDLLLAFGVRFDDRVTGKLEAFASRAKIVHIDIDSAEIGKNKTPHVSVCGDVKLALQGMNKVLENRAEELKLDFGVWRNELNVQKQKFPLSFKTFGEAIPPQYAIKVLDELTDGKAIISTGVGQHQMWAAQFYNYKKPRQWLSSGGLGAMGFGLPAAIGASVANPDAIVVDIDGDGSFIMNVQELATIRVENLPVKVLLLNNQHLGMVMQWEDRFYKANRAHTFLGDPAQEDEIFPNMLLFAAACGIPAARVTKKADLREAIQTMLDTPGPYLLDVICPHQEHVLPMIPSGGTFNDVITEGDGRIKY
# ASSAY_INFO: Inhibitory activity against Acetolactate synthase (ALS) enzyme by using the rape-root growth method

Some molecules with known IC50 results, for comparison:
1. O=C(OCn1ccc(=O)[nH]c1=O)c1ccc(I)cc1 = > 100 p.p.m.
2. O=C(OCn1ccc(=O)[nH]c1=O)c1c(Cl)cc(C(F)(F)F)cc1Cl = > 100 p.p.m.

// next item, IC50 requested
Query block: Please indicate IC50 recorded for Cc1cnc(NS(=O)(=O)c2cc(Cl)ccc2Cl)s1
Result block: > 0.000309 M l-1
